Answer each item with its documented IC50.
- target.or.system: MTP (Homo sapiens, UniProt P55157)
- Sequence (P55157 19-894, species assumed): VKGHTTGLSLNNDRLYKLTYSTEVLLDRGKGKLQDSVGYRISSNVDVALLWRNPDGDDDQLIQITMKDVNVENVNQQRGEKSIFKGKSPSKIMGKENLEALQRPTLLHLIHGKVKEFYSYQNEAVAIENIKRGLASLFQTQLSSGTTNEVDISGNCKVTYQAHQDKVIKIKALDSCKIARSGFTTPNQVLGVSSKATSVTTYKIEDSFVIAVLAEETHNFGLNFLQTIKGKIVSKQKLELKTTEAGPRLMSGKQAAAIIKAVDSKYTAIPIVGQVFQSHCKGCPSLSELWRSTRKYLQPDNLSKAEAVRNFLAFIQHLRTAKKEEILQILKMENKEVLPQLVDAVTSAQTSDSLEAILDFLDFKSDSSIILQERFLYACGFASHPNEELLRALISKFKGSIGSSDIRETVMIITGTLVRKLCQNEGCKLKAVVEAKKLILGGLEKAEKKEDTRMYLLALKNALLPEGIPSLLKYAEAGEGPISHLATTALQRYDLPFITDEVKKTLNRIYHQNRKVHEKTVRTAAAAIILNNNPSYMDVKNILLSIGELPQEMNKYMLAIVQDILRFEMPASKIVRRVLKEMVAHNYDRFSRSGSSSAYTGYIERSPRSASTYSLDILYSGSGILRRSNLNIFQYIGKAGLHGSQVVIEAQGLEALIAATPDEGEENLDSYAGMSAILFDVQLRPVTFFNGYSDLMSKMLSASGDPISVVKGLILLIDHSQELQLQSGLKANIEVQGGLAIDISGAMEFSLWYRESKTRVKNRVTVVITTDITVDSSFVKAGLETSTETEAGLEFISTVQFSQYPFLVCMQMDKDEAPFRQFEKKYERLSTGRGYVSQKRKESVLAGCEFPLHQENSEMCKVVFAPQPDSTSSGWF
- Sequence (P07237 18-508 partner, species assumed): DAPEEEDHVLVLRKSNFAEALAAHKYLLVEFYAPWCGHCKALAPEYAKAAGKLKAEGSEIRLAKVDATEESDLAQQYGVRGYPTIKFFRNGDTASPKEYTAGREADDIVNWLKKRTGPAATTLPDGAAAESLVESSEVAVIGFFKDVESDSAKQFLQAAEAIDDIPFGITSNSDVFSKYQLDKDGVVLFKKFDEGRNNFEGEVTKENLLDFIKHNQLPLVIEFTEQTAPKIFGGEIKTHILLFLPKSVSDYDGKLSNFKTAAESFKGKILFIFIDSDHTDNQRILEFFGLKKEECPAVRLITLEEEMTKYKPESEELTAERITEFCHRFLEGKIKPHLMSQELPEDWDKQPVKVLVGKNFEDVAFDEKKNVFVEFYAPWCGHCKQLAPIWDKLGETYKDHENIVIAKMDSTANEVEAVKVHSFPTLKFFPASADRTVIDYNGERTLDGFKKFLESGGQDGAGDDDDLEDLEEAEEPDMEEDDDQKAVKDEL
- experiment.notes: In vitro inhibition of MTP, triacylglycerol transfer assay with donor and acceptor liposomes (fluorescence)
- Assay type: biochemical
- settings: Table 6, assay of Example 3; read-out: IC50 Enzyme Assay
Give bare numbers, in nM.

# annotated cases, reported IC50 shown
1) CN(Cc1ccc(F)cc1)C(=O)[C@@H](NC(=O)c1nc2ccc(NC(=O)c3ccccc3-n3cccc3)cc2s1)c1ccccc1 :: 45
2) CN(Cc1ccc(F)cc1)C(=O)[C@@H](NC(=O)c1nc2ccc(NC(=O)c3ccccc3-c3ccc(C(F)(F)F)cc3)cc2s1)c1ccccc1 :: 145
3) CN(Cc1ccc(F)cc1)C(=O)[C@@H](NC(=O)c1nc2ccc(NC(=O)c3ccccc3-c3cn4ccccc4n3)cc2s1)c1ccccc1 :: 13
4) Cc1cccc(C(=O)Nc2ccc3nc(C(=O)N[C@H](C(=O)N4CCCC4)c4ccccc4)sc3c2)c1-c1ccc(C(C)C)cc1 :: 5.1
5) COc1cccc(C(=O)Nc2ccc3nc(C(=O)N[C@H](C(=O)N4CCCC4)c4ccccc4)sc3c2)c1-c1ccc(C(C)(C)C)cc1 :: 3.8

For each of the molecules below, state IC50.
1. Cc1cccc(C(=O)NCC23CCC(C(=O)N[C@H](C(=O)N(C)Cc4ccc(F)cc4)c4ccccc4)(CC2)CC3)c1-c1ccc(C(C)(C)C)cc1
2. CC(C)(C)c1ccc(-c2ccccc2C(=O)Nc2ccc3nc(C(=O)N[C@H](C(=O)N4CCCC4)c4ccccc4)sc3c2)cc1
3. CN(Cc1ccc(F)cc1)C(=O)[C@@H](NC(=O)C12CCC(NC(=O)c3ccccc3-c3ccc(C(C)(C)C)cc3)(CC1)CC2)c1ccccc1
4. CCCCN(C)C(=O)[C@@H](NC(=O)c1nc2ccc(NC(=O)c3ccccc3-c3ccc(C(C)(C)C)cc3)cc2s1)c1ccccc1
5. CN(Cc1ccc(F)cc1)C(=O)[C@@H](NC(=O)c1nc2ccc(NC(=O)c3ccccc3-c3cn4ccsc4n3)cc2s1)c1ccccc1

Reply |
[56.2, 2.6, 9.9, 9.5, 15]

The molecule identified as `CN(Cc1ccc(F)cc1)C(=O)[C@@H](NC(=O)c1nc2ccc(NC(=O)c3ccccc3-c3csc(-c4ccccc4)n3)cc2s1)c1ccccc1` registered its IC50 at 24

###

- target.or.system: MTP (Homo sapiens, UniProt P55157)
- experiment.notes: In vitro inhibition of MTP, triacylglycerol transfer assay with donor and acceptor liposomes (fluorescence)
- Assay type: biochemical
- settings: Table 6, assay of Example 3; read-out: IC50 Enzyme Assay
measured.attribute: pIC50
Numbers only, as −log10 of the molar value.

Solved entries:
1) CN(Cc1ccc(F)cc1)C(=O)[C@@H](NC(=O)c1ccc2nc(NC(=O)c3ccccc3-c3cn4ccsc4n3)ccc2c1)c1ccccc1 [Compound 3] :: 7.96
2) COc1cccc(C(=O)Nc2ccc3nc(C(=O)N[C@H](C(=O)N4CCCC4)c4ccccc4)sc3c2)c1-c1ccc(C(F)(F)F)cc1 [Compound 79] :: 8.51
3) Cc1cccc(C(=O)Nc2nc(-c3ccc(C(=O)N[C@H](C(=O)N4CCCC4)c4ccccc4)cc3)cs2)c1-c1ccc(C(C)(C)C)cc1 [Compound 83] :: 7.99
4) CCCCCNC(=O)[C@@H](NC(=O)c1nc2ccc(NC(=O)c3ccccc3-c3ccc(C(C)(C)C)cc3)cc2s1)c1ccccc1 [Compound 8] :: 8.08

Let us move to another entry and its pIC50.
Sample CN(Cc1ccc(F)cc1)C(=O)[C@@H](NC(=O)c1cn2cc(NC(=O)c3ccccc3-c3ccc(C(C)(C)C)cc3)ccc2n1)c1ccccc1 [Compound 33] ; pIC50 observed: 8.15

###

- System: secretion of ApoB by HepG2 cells
- experiment.notes: ApoB secretion inhibition assay in HepG2 cells (ApoB ELISA)
- Assay type: cell-based, human
- settings: Homo sapiens, HepG2, Tables 2-5, second symbol of the cell; read-out: IC50 Apo B Secretion Assay (Example 2)
Give IC50 for every item shown.

Hi there! I need IC50 for each item below, if you can.
1. CN(Cc1ccc(F)cc1)C(=O)[C@@H](NC(=O)c1ccc2nc(NC(=O)c3ccccc3C3CCNCC3)ccc2c1)c1ccccc1 [Compound C1]
2. CN(Cc1ccc(F)cc1)C(=O)[C@@H](NC(=O)C12CCC(CNC(=O)c3ccccc3-c3ccc(C(C)(C)C)cc3)(CC1)CC2)c1ccccc1 [drawing 120/drawing 118]
3. CN(Cc1ccc(F)cc1)C(=O)[C@@H](NC(=O)c1ccc2nc(NC(=O)c3ccccc3C3CCNC3)ccc2c1)c1ccccc1 (stereo partly drawn) [Compound C3]
4. CN(Cc1ccc(F)cc1)C(=O)[C@@H](NC(=O)c1ccc2nc(NC(=O)c3ccccc3-c3cn4ccsc4n3)ccc2c1)c1ccccc1 [Compound C5]
5. CN(Cc1ccc(F)cc1)C(=O)[C@@H](NC(=O)c1nc2ccc(NC(=O)c3ccccc3-c3ccc(C(C)(C)C)cc3)cc2s1)c1ccccc1 (single isomer, unassigned)
6. CC(C)(C)c1ccc(-c2ccccc2C(=O)Nc2ccc3nc(C(=O)N[C@H](C(=O)N4CCCC4)c4ccccc4)sc3c2)cc1 [drawing 126/drawing 123]

Reply |
1. > 1010 nM
2. 101 to 1000 nM
3. > 1010 nM
4. < 100 nM
5. < 100 nM
6. < 100 nM
